B1: r4_43_TrROS_Hall (parent)
chain: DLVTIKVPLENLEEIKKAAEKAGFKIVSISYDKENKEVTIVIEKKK

Variants of: B1
Test: folding stability dG (cDNA display proteolysis); higher = more stable
Settings: PBS, room temperature
Rule: folding stability dG of 3 kcal/mol or more gives criterion met; anything lower gives criterion not met.

As a guide, the following entries are already answered.
Mutation key	Group label
V3M	criterion met
A19E	criterion not met
I40Y	criterion not met

INPUT: State whether the measured folding stability dG reaches 3 kcal/mol, counting equality as reaching it, for E14I
OUTPUT: criterion met

INPUT: Try this variant next: D1T
OUTPUT: criterion met
